# Target: rat MCH1 receptor (Rattus norvegicus)
# Construct: expressed in transfected cells; host or cells: Human embryonic kidney Peak rapid 293 cells (Peakr293), transient, calcium phosphate; membranes
# Sequence (P97639 whole entry): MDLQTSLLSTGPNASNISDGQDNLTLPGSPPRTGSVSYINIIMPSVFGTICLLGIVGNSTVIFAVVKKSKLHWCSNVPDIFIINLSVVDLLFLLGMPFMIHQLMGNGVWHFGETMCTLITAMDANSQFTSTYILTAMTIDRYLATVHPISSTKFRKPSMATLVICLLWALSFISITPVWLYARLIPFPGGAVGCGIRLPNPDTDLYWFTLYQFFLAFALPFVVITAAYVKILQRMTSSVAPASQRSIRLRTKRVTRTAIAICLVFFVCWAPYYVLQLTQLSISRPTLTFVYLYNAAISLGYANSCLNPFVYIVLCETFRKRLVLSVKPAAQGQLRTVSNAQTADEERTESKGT
# Test description: Radioligand binding assay at cloned rat MCH1 receptor ([3H]Compound A displacement)
# Recorded conditions: KI, cloned rat MCH1, membranes of transfected Peakr293 cells, 0.08 nM [3H]Compound A, 25° C., 90 minutes
pKi: −log10 of the molar value.
Quick rule for you: pKi at 7 or higher means class 1, lower means class 0.

Completed entries (count: 3):
[
  {
    "Compound": "O=C(NCCCN1CCC2(CC1)OCc1cc(F)c(F)c(F)c12)C(c1ccccc1)c1ccccc1 [Example 99]",
    "Class assignment": "class 1"
  },
  {
    "Compound": "O=C(NCCCN1CCC2(CCc3ccccc32)CC1)c1ccc(Oc2cc(Cl)cc(Cl)c2)o1 [Example 17]",
    "Class assignment": "class 0"
  },
  {
    "Compound": "O=C(NCCCN1CCC2(CCc3ccccc32)CC1)C1(c2ccc(F)cc2)CCCC1 [Example 54]",
    "Class assignment": "class 0"
  }
]

Answer whether pKi of O=C(NCCCCCCN1CCC2(CCc3ccccc32)CC1)c1cc(F)cc(F)c1 [Example 14] is greater than or equal to 7.
class 0

And for O=C(NCCCCCCN1CCC2(CCc3ccccc32)CC1)c1ccc(F)c(F)c1 [Example 19] ?
class 0

Could you do the same for S=C(NCCCCCN1CCC2(CCc3ccccc32)CC1)Nc1cccc2ccccc12 [Example 22] , please?
class 0
